Each entry below carries its recorded Analgesic activity (von Frey).
# System: mice
# EXPERIMENT DESCRIPTION: Streptozotocin-induced diabetic neuropathy, von Frey test (tactile allodynia)
# Type: in vivo, Albino Swiss mice
# MEASUREMENT PARAMETERS: diabetic (STZ) mice; 10 mg/kg i.p.; vs pre-drug threshold
Report the figure in % without appending any unit label.

Field: example entries. Status: answers known.
# COMPOUND, NUMERIC RESULT
measured = [
    ("O=C1c2ccccc2C(=O)N1CC(O)CN1CCN(C(c2ccccc2)c2ccccc2)CC1 (stereo not shown) [Compound F4]", 38.29),
    ("O=C1c2ccccc2C(=O)N1CC(O)CN1CCN(c2cccc(C(F)(F)F)c2)CC1 (stereo not shown) [Compound F3]", 81.13),
    ("O=C1c2ccccc2C(=O)N1CC(O)CN1CCN(c2ccccc2)CC1 (stereo not shown) [Compound F1]", 48.6),
]

Now examine the next entry.
input: # return recorded Analgesic activity (von Frey) for input COc1ccccc1N1CCN(CC(O)CN2C(=O)c3ccccc3C2=O)CC1 (stereo not shown) [Compound F2]
output: 39.4
